- tested-system: Human full-length SHP2 recombinant protein (Homo sapiens (Human))
- method-description: Assay of full-length SHP2 phosphatase activity
- settings: DiFMUP substrate, with activating peptide
measurement-name: pIC50
Hey, just a heads up that pIC50 is the negative log base 10 of the concentration in molar.

Given "CCNC(=O)C#Cc1ccc2c(c1)[C@@H](N)C1(CCN(c3nc(N)c(Sc4ccnc(N)c4Cl)nc3Cl)CC1)C2" , state its recorded pIC50.
8.05

Given C#Cc1ccc2c(c1)OC1(CCN(c3cc(=O)n(-c4cccc(Cl)c4Cl)c(C)n3)CC1)[C@@H]2N (atropisomer, axis not shown) [Compound 11] , state its recorded pIC50.
7.01

Given C#Cc1ccc2c(c1)[C@@H](N)C1(CCN(c3nc(C)n(-c4ccc(F)cc4Cl)c(=O)c3C)CC1)C2 [Compound 54] , state its recorded pIC50.
8.52

Given "CC#Cc1ccc2c(c1)[C@@H](N)C1(CCN(c3ncc(Sc4ccnc(N)c4Cl)c(=O)n3C)CC1)C2" , state its recorded pIC50.
8.70

Given "CC#Cc1ccc2c(c1)[C@@H](N)C1(CCN(c3nc(N)c(Sc4ccnc(N)c4Cl)c(=O)n3C)CC1)C2" , state its recorded pIC50.
8.70

Given C#Cc1ccc2c(c1)[C@@H](N)C1(CCN(c3nc(C)n(-c4ccc(F)cc4Cl)c(=O)c3C)CC1)C2 (atropisomer, axis not shown) [Compound 103] , state its recorded pIC50.
7.77

---

- tested-system: Human full-length SHP2 recombinant protein (Homo sapiens (Human), UniProt Q06124)
- Sequence (Q06124 whole entry): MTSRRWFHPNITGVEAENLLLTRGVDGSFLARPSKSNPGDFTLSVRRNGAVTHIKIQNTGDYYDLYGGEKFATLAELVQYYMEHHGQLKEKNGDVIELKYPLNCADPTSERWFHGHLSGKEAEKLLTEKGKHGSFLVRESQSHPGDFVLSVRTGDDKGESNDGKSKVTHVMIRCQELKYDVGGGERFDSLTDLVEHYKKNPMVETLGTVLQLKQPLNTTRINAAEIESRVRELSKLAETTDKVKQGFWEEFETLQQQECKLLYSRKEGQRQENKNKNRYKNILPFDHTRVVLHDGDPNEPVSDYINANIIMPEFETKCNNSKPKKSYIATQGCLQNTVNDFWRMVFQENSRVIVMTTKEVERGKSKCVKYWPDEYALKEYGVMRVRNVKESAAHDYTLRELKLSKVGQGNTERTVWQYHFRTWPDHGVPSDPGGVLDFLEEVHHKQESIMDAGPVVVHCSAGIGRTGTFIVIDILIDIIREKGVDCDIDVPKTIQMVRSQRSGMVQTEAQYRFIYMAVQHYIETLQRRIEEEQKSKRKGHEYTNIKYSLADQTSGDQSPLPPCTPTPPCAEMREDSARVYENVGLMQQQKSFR
- method-description: Assay of full-length SHP2 phosphatase activity
- Assay type: biochemical
- settings: DiFMUP substrate, with activating peptide
Field: pIC50. Provide a value for each of the compounds that follow.
Hey, just a heads up that pIC50 is the negative log base 10 of the concentration in molar.

Find the measured pIC50: item "C#Cc1ccc2c(c1)CC1(CCN(c3ncc(Sc4ccnc(NCCOC)c4Cl)c4nccn34)CC1)[C@@H]2N" , target or system Human full-length SHP2 recombinant protein (Homo sapiens (Human), UniProt Q06124).
8.05

Find the measured pIC50: item "COCC#Cc1cc(F)c2c(c1)[C@@H](N)C1(CCN(c3nc(C)n(-c4cccc(Cl)c4Cl)c(=O)c3C)CC1)C2" , target or system Human full-length SHP2 recombinant protein (Homo sapiens (Human), UniProt Q06124).
7.89

Find the measured pIC50: item "C#Cc1ccc2c(c1)[C@@H](N)C1(CCN(c3ncc(Sc4ccnc(C)n4)n4nccc34)CC1)C2" , target or system Human full-length SHP2 recombinant protein (Homo sapiens (Human), UniProt Q06124).
8.70

Find the measured pIC50: item "C#Cc1ccc2c(c1)CC1(CCN(c3ncc(Sc4ccnc(NCCO)c4Cl)c4nccn34)CC1)[C@@H]2N" , target or system Human full-length SHP2 recombinant protein (Homo sapiens (Human), UniProt Q06124).
8.00

Find the measured pIC50: item "C#Cc1ccc2c(c1)[C@@H](N)C1(CCN(c3ncc(N4CCCc5ncccc54)c(=O)n3C)CC1)C2" , target or system Human full-length SHP2 recombinant protein (Homo sapiens (Human), UniProt Q06124).
7.92

Find the measured pIC50: item C#Cc1ccc2c(c1)[C@@H](N)C1(CCN(c3cc(=O)n(-c4ccc(F)c(OC)c4F)c(C)n3)CC1)C2 (atropisomer, axis not shown) [Compound 89] , target or system Human full-length SHP2 recombinant protein (Homo sapiens (Human), UniProt Q06124).
7.82

Find the measured pIC50: item "Nc1nccc(Sc2cnc(N3CCC4(CC3)Cc3ccc(C#CC(=O)N5CCC5)cc3[C@H]4N)cn2)c1Cl" , target or system Human full-length SHP2 recombinant protein (Homo sapiens (Human), UniProt Q06124).
9.30

Find the measured pIC50: item "Nc1nc(N2CCC3(CC2)Cc2ccc(C#CC(=O)NC4CC4)cc2[C@H]3N)c(Cl)nc1Sc1ccnc(N)c1Cl" , target or system Human full-length SHP2 recombinant protein (Homo sapiens (Human), UniProt Q06124).
8.00

Find the measured pIC50: item "COCC#Cc1ccc2c(c1)[C@@H](N)C1(CCN(c3nc(C)n(-c4cccc(Cl)c4Cl)c(=O)c3F)CC1)C2" , target or system Human full-length SHP2 recombinant protein (Homo sapiens (Human), UniProt Q06124).
8.22

Find the measured pIC50: item "C#Cc1ccc2c(c1)[C@@H](N)C1(CCN(c3ncc(-c4cn(C)c5ncccc45)c(=O)n3C)CC1)C2" , target or system Human full-length SHP2 recombinant protein (Homo sapiens (Human), UniProt Q06124).
7.07

Find the measured pIC50: item "Cc1nc(N2CCC3(CC2)Cc2ccc(C#C[C@H](C)O)cc2[C@H]3N)cc(=O)n1-c1cccc(Cl)c1Cl" , target or system Human full-length SHP2 recombinant protein (Homo sapiens (Human), UniProt Q06124).
7.34

Find the measured pIC50: item "NC(=O)C#Cc1ccc2c(c1)[C@@H](N)C1(CCN(c3ncc(Sc4ccnc(N)c4Cl)nc3CO)CC1)C2" , target or system Human full-length SHP2 recombinant protein (Homo sapiens (Human), UniProt Q06124).
9.22
